System: plasma GH concentrations
Measurement Description: Growth hormone releasing activity in the infant rat (plasma GH by RIA)
Type: in vivo, Sprague Dawley rats
Particulars: Table 2 test series; male 10-day-old rats; 300 μg/kg subcutaneously; plasma 15 min later
Square brackets hold non-standard residues; d marks the D form. Peptide text beside a SMILES is read from it. dTrp(2-Me) = Cc1[nH]c2ccccc2c1C[C@@H](N)C(=O)O
Endpoint Name: GH (ng/mL)

1) CC(=O)NC(Cc1c[nH]c2ccccc12)NC(=O)C(Cc1c[nH]c2ccccc12)NC(=O)C(C)(C)N [Example 4, H-Aib-D-Trp-D-gTrp-C(O)CH3]	104.7
2) CNC(C)(C)C(=O)N[C@H](Cc1c[nH]c2ccccc12)C(=O)N[C@H](Cc1c[nH]c2ccccc12)NC(C)=O [Example 5, N-Me-Aib-D-Trp-D-gTrp-C(O)CH3]	175.5
3) Cc1[nH]c2ccccc2c1C[C@@H](NC(=O)[C@@H](N)Cc1cnc[nH]1)C(=O)N[C@@H](C)C(=O)N[C@@H](Cc1c[nH]c2ccccc12)C(=O)N[C@H](Cc1ccccc1)C(=O)N[C@@H](CCCCN)C(N)=O [HEXARELIN, Tyr-Ala-His-D-Mrp-Ala-Trp-D-Phe-Lys-NH2, reference compound] (H-H[dTrp(2-Me)]AW[dF]K-NH2)	134.5
4) CNC(C)(C)C(=O)NC(Cc1c[nH]c2ccccc12)C(=O)NC(Cc1c[nH]c2ccccc12)NC=O [Example 3, N-Me-Aib-D-Trp-D-gTrp-CHO]	86.6
